# credit: patent EP0057141A2

Answer each item with its documented Solubilités : propylène glycol.
- Run description: Solubility in water and solvents
- Format: physicochemical
- Test settings: propylene glycol

See these solved cases before continuing.
Compound: CCCCCCCCOC(=O)c1ccc(-c2ccccc2Cl)cc1
Endpoint value: 0,1%
--
Compound: CCCCCCCCCCCCCCCCOC(=O)c1ccc(-c2ccccc2Cl)cc1
Endpoint value: 0,1%
--
Compound: CCOC(=O)c1ccc(-c2ccccc2Cl)cc1
Endpoint value: 1%
--
Compound: CC1CC(OC(=O)c2ccc(-c3ccccc3Cl)cc2)CC(C)(C)C1 (stereo not shown)
Endpoint value: 0,1%
--
Compound: O=C(OCc1cccnc1)c1ccc(-c2ccccc2Cl)cc1
Endpoint value: 0,1%
--
Compound: CC(C)OC(=O)c1ccc(-c2ccccc2Cl)cc1
Endpoint value: 1%

Entry under review: "O=C(OCc1ccccc1)c1ccc(-c2ccccc2Cl)cc1" . Reported Solubilités : propylène glycol?
0,2%

* * *

Give measured Solubilités : éthanol for each item. Keep answers brief.
- Run description: Solubility in water and solvents
- Format: physicochemical
- Test settings: ethanol
Numbers only, in %.

Compound: O=C(OCc1ccccc1)c1ccc(-c2ccccc2Cl)cc1 [Exemple 6]
Endpoint value: 2
--
Compound: CCCCCCCCOC(=O)c1ccc(-c2ccccc2Cl)cc1 [Exemple 3]
Endpoint value: 5
--
Compound: CCOC(=O)c1ccc(-c2ccccc2Cl)cc1 [Exemple 1]
Endpoint value: 5
--
Compound: CC1CC(OC(=O)c2ccc(-c3ccccc3Cl)cc2)CC(C)(C)C1 (stereo not drawn) [Exemple 5]
Endpoint value: 2

Fill blank: measured Solubilités : éthanol of the compound CC(C)OC(=O)c1ccc(-c2ccccc2Cl)cc1 [Exemple 2] is ____.
2

* * *

- Run description: Solubility in water and solvents
- Format: physicochemical
- Test settings: water; read-out: Solubilités : eau
Measured attribute: solubility

Endpoint output: solubility of "CN(C)CCOC(=O)c1ccc(-c2ccccc2Cl)cc1" . Value?
100 mg/mL

* * *

Kindly state Solubilités : diméthyl sulfoxyde (DMSO) for each of the entries shown.
- Run description: Solubility in water and solvents
- Format: physicochemical
- Test settings: DMSO

Structure as smiles: CN(C)CCOC(=O)c1ccc(-c2ccccc2Cl)cc1
Endpoint value: 12%

Lab note: each molecule below needs its Solubilités : diméthyl sulfoxyde (DMSO) filled in.
1. CC(C)OC(=O)c1ccc(-c2ccccc2Cl)cc1
2. CCOC(=O)c1ccc(-c2ccccc2Cl)cc1

1. 10%
2. 20%
